System: T1, cynomolgus monkey PVRIG expressed on cells (cynomolgus monkey, UniProt A0A2K5WVV8 1-322)
T1 construct: whole, on cells; also called Monkey PVRIG FACS; cells overexpressing cynomolgus monkey PVRIG
T1 sequence: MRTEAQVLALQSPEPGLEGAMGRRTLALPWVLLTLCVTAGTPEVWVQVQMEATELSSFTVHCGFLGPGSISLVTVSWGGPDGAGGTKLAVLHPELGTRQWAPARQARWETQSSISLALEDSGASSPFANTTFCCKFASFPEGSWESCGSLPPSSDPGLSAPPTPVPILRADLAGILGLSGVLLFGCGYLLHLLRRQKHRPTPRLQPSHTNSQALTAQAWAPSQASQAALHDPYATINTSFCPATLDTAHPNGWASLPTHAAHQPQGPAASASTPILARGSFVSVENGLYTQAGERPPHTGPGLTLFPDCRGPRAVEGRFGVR
Run description: FACS, HEK293 cells overexpressing target
Overview of reported pEC50 across a group of binders:
To interpret pEC50, take it as minus log10 of a concentration measured in moles per litre.

Example entries and their recorded answers appear below.
- Binder: "humanized anti-PVRIG antibody 38H2 (antibody, human IgG4 S228P, F234A L235A, V domains shown) VH: EVQLVESGGGVVQPGGSLRLSCAASGFTFSPSDMAWFRQAPGKGLEGVATISAAGRLTYYTDSVRGRFTISRDNSKNTLYLQMNSLRAEDTAVYYCAADFAGGSSLFADYKYWGQGTMVTVSS"
  Experimental endpoint: "pEC50"
  Result number: 9.86
- Binder: "humanized anti-PVRIG antibody 38H7 (antibody, human IgG4 S228P, F234A L235A, V domains shown) VH: EVQLVESGGGVVQPGGSLRLSCAASPSTYGPSDMAWFRQAPGKQREGVATISAAGRLTYYTDSVRGRFTISRDNSKNTMYLQMNSLRAEDTAVYYCAADFAGGSSLFADYKYWGQGTMVTVSS"
  Experimental endpoint: "pEC50"
  Result number: 10.31
- Binder: "humanized anti-PVRIG antibody 30H3 (antibody, human IgG4 S228P, F234A L235A, V domains shown) VH: EVQLVESGGGLVQPGGSLRLSCAASGYSYSGDCMGWFRQAPGKGLDEGVATIDNAGRIKYADSVKGRFTISRDNAKNSLYLQMNSLRAEDTAVYYCAAGWTFGGQCSPADWGQGTQVTVSS"
  Experimental endpoint: "pEC50"
  Result number: 11.52

Now, please, on to the next binder.
Recall and state the measured pEC50 for humanized anti-PVRIG antibody 20H1 (antibody, human IgG4 S228P, F234A L235A, V domains shown) VH: EVQLVESGGGLVQPGGSLRLSCAASGFTFSTDCMGWFRQAPGKGLEGVAHIDSDGIPRYVDSVKGRFTISRDNAKNSLYLQMNSLRAEDTAVYYCVVGFKFDEDYCAPNDWGQGTMVTVSS .
9.18

# credit: patent US20240376207A1
